# System: NanoLuc
# assayText: NanoLuc luciferase reporter expression from constitutive promoters and RBSs integrated with pNBU2
# Assay type: cell-based, B. thetaiotaomicron
# particulars: RBS combined with promoter PBT1311, NanoLuc reporter, three biological replicates
What Average Luminescence (RLU/CFU) was measured for each of the following?
Numbers only, in RLU/CFU.

Worked examples, 2 substances total:
# substance, unitAbbrev, Average Luminescence (RLU/CFU)
data = [
    ("C13: RBS, SEQ ID NO: 38 (DNA TCCCGCATTTTAAAATAAAATAAATTATTAATTTAATTAAACGAAT; chemistry not fully specified)", "RLU/CFU", 0.02149),
    ("A8: RBS, SEQ ID NO: 44 (DNA TCCCGCATTTTAAAATAAAATAAATTATTAGTTTATTTAAACGAAT; chemistry not fully specified)", "RLU/CFU", 0.02026),
]

Here is another substance to look at.
Q: Need Average Luminescence (RLU/CFU) of C53: RBS, SEQ ID NO: 140 (DNA TCCCGCATTTTAAAATAAAATAAATTATTCGTTTAATTAAACGAAT; chemistry not fully specified) , thanks.
Result: 7.299E-05

Values from patent US11591604B2
